// data source = the supplement of paper PMC8671470

The molecules listed here are annotated with their cell viability.
Tested on: myeloid leukemia patient primary cells Pat.9
Assay: cell viability (% survival relative to DMSO control); higher = less cytotoxic
Settings: 1000 nM; 72 h
Entry rule: numbers only, all in %.

Below: 4 molecules and their reported cell viability.
[[record]]
molecule = "CC[C@@]1(O)C(=O)OCc2c1cc1n(c2=O)Cc2cc3c(CN(C)C)c(O)ccc3nc2-1 [Topotecan]"
reported_result = 58.8

[[record]]
molecule = "O=C1c2cc([N+](=O)[O-])ccc2-n2c1nc1ccccc1c2=O [GNF-Pf-3777]"
reported_result = 63.4

[[record]]
molecule = "COC(=O)[C@]12CCC(C)(C)C[C@H]1[C@H]1C(=O)C=C3[C@@]4(C)C=C(C#N)C(=O)C(C)(C)[C@@H]4CC[C@@]3(C)[C@]1(C)CC2 [Bardoxolone methyl]"
reported_result = 0.773

[[record]]
molecule = "Cc1c(-c2ccc(-c3ccccc3F)cc2)nc2ccc(F)cc2c1C(=O)O [Brequinar]"
reported_result = 50


Give its cell viability value. Item: Nc1nc(Cl)nc2c1ncn2[C@H]1C[C@H](O)[C@@H](CO)O1 [Cladribine]
1.24

Need cell viability of Oc1ccc(Nc2nc(-c3ccc(Cl)cc3)cs2)cc1 [SKI II] , thanks.
24.7

# lookup: cell viability of N#CC(C#N)=NNc1ccc(OC(F)(F)F)cc1 [FCCP]
3.45
